Target: GDP-loaded KRAS G12D (Homo sapiens (Human), UniProt P01116, G12D)
Sequence (P01116-2 other isoform, or with tags, fused parts or gaps G12D): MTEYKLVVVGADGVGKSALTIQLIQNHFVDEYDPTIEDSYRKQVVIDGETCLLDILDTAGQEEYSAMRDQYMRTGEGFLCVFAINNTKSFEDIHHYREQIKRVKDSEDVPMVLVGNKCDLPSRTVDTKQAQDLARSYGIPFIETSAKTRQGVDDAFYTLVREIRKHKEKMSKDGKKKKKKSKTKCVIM
Assay: KRAS G12D (GDP) biochemical assay (TR-FRET probe displacement)
Assay type: binding
Conditions: 2 hours
readoutLabel: IC50 (nM)

# compound, readoutUnit, dataValue
records = [
    ("C#Cc1c(F)ccc2cc(O)cc(-c3nc4c5c(nc(OC[C@@]67CCCN6[C@H](COCC(F)(F)F)CC7)nc5c3F)N3C[C@H]5CC[C@H](N5)[C@H]3CC4)c12", "nM", 0.1),
    ("C#Cc1c(F)ccc2cccc(-c3nc4c5c(nc(OC[C@@]67CCCN6[C@H](COc6ncncc6C(F)F)CC7)nc5c3F)N3C[C@H]5CC[C@H](N5)[C@H]3CCC4)c12", "nM", 0.04),
    ("C#Cc1c(F)ccc2cccc(-c3nc4c5c(nc(OC[C@@]67CCCN6[C@H](COC(C6CC6)C(F)(F)F)CC7)nc5c3F)N3C[C@H]5CC[C@H](N5)[C@H]3CCC4)c12 (some centres unmarked)", "nM", 0.1),
    ("C#Cc1c(F)ccc2cccc(-c3cc4c5c(nc(OC[C@@]67CCCN6C[C@H](F)C7)nc5c3F)N3C[C@H]5CC[C@H](N5)[C@H]3CCC4)c12", "nM", 0.1),
    ("C#Cc1c(F)ccc2cc(O)cc(-c3nc4c5c(nc(OC[C@@]67CCCN6C[C@H](F)C7)nc5c3F)N3C[C@H]5CC[C@H](N5)[C@H]3CC4)c12", "nM", 0.1),
    ("C#Cc1c(F)ccc2cc(O)cc(-c3nc4c5c(nc(OC[C@@]67CCCN6CC(OC(F)(F)F)C7)nc5c3F)N3C[C@H]5CC[C@H](N5)[C@H]3CC4)c12 (some centres unmarked)", "nM", 0.1),
    ("Fc1ccc2cccc(-c3nc4c5c(nc(OCC6(CN7CCC(OC(F)(F)F)CC7)CC6)nc5c3F)N3C[C@H]5CC[C@H](N5)[C@H]3CC4)c2c1OC(F)(F)F", "nM", 337),
    ("C#Cc1c(F)ccc2cccc(-c3nc4c5c(nc(OC[C@@]67CCCN6[C@H](COc6ccnc(C(F)(F)F)n6)CC7)nc5c3F)N3C[C@H]5CC[C@H](N5)[C@H]3CC4)c12", "nM", 0.1),
    ("C#Cc1c(F)ccc2cccc(-c3nc4c5c(nc(OCC6(CN7CCC(OC(F)(F)F)CC7)CC6)nc5c3F)N3C[C@H]5CC[C@H](N5)[C@H]3CC4)c12", "nM", 7.2),
    ("C#Cc1c(F)ccc2cc(O)cc(-c3nc4c5c(nc(OCC6(CN7CC[C@H](OC(F)(F)F)C7)CC6)nc5c3F)N3C[C@H]5CC[C@H](N5)[C@H]3CCC4)c12", "nM", 0.4),
    ("C#Cc1c(F)ccc2cccc(-c3nc4c5c(nc(OC[C@@]67CCCN6C[C@H](OC(C(F)(F)F)(C(F)(F)F)C(F)(F)F)C7)nc5c3F)N3C[C@H]5CC[C@H](N5)[C@H]3CC4)c12", "nM", 100),
    ("Fc1ccc2ccccc2c1-c1nc2c3c(nc(OC[C@@]45CCCN4C[C@H](F)C5)nc3c1F)N1C[C@H]3CC[C@H](N3)[C@H]1CO2", "nM", 2200),
    ("Oc1cc(-c2nc3c4c(nc(OC[C@@]56CCCN5C[C@H](F)C6)nc4c2F)N2C[C@H]4CC[C@H](N4)[C@H]2CO3)c2c(Cl)c(F)ccc2c1", "nM", 0.5),
    ("C#Cc1c(F)ccc2cccc(-c3c(Cl)c4c5c(nc(OC[C@@]67CCCN6C[C@H](F)C7)nc5c3F)N3C[C@H]5CC[C@H](N5)[C@H]3CC4)c12", "nM", 0.37),
]
